molecular target: UniProtKB A0A8I3NK63; assay: Functional antagonism: phenylephrine (PE)-induced contraction of canine prostate strips; type: cell-based; details: Table 2a; vs phenylephrine; Schild plot
Where a name gives a salt, the structure may show the parent alone.
Readings of pA2 Dog Prostate [α-1A] for the listed compounds
Give the figure only, with no unit attached.

compound	pA2 Dog Prostate [α-1A]
COc1cccc2c1CC[C@@H]1CN(CCn3c(=O)[nH]c4c(sc5ccccc54)c3=O)C[C@H]21 [Example 8, hydrochloride]	7.63
COc1cccc2c1CC[C@H]1CN(CCn3c(=O)[nH]c4c(sc5nccnc54)c3=O)C[C@@H]21	9.16
COc1cccc2c1CC[C@@H]1CN(CCn3c(=O)[nH]c4c(sc5ccccc54)c3=O)C[C@@H]21 (relative stereo) [Example 10, hydrochloride]	8.37
COc1cccc2c1CC[C@H]1CN(CCn3c(=O)[nH]c4c(sc5ccc(C(=O)N6CCOCC6)cc54)c3=O)C[C@@H]21 [Example 58, hydrochloride]	9.09
COc1cccc2c1CC[C@H]1CN(CCn3c(=O)[nH]c4c([nH]c5ccccc54)c3=O)C[C@@H]21 [Example 26, hydrochloride]	8.63
O=c1[nH]c2c(sc3cccnc32)c(=O)n1CCN1C[C@@H]2CCc3c(ccc4c3OCO4)[C@@H]2C1 (relative stereo) [Example 112, dihydrochloride]	8.18
COc1cccc2c1CC[C@H]1CN(CCn3c(=O)[nH]c4c(sc5ncccc54)c3=O)C[C@@H]21 (relative stereo) [Example 23, hydrochloride]	8.97
COc1cccc2c1[C@@H]1CN(CCn3c(=O)[nH]c4c(sc5ccccc54)c3=O)C[C@@H]1CC2 [Example 16, hydrochloride]	8.54
COc1cnc2c(n1)sc1c(=O)n(CCN3C[C@@H]4CCc5c(OC)cccc5[C@@H]4C3)c(=O)[nH]c12 [Example 89, hydrochloride]	9.03
COc1cccc2c1CC[C@@H]1CN(CCn3c(=O)[nH]c4c(sc5ncccc54)c3=O)C[C@H]21 [Example 75, hydrochloride]	8.04

Q: Recorded pA2 Dog Prostate [α-1A] of COc1cccc2c1CC[C@@H]1CN(CCn3c(=O)[nH]c4c([nH]c5ccccc54)c3=O)C[C@@H]21 (relative stereo) [Example 17, hydrochloride] , please.
Result: 8.29

Q: // query: COc1cccc2c1CC[C@H]1CN(CCn3c(=O)c4sc5nccnc5c4n(C(C)C)c3=O)C[C@@H]21 [Example 90, hydrochloride]
Result: 9.05

====

Readings of pA2 Dog Prostate [α-1A] for the listed compounds
biological target: α-1A adrenoceptor (dog prostate) (Canis lupus, UniProt A0A8I3NK63); test: Functional antagonism: phenylephrine (PE)-induced contraction of canine prostate strips; type: cell-based; conditions: Table 2a; vs phenylephrine; Schild plot
Sequence (A0A8I3NK63 1-466): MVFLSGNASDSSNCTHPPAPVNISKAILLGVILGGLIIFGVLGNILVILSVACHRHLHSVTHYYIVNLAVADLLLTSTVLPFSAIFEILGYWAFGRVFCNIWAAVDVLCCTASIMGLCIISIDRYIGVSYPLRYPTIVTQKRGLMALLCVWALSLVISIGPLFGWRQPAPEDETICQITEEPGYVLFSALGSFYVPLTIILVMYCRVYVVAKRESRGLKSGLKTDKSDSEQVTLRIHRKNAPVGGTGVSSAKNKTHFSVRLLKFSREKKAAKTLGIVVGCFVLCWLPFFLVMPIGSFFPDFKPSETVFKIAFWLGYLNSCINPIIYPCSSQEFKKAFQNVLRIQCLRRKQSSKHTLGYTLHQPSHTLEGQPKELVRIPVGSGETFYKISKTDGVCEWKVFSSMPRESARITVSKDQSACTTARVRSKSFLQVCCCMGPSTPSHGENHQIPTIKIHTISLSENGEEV
Counter-ions that a name gives are not always drawn.

compound	pA2 Dog Prostate [α-1A]
COc1cccc2c1CC[C@H]1CN(CCn3c(=O)[nH]c4c(ccc5ccccc54)c3=O)C[C@@H]21 (relative stereo) [Example 25, hydrochloride]	8.27
COc1cccc2c1CC[C@H]1CN(CCn3c(=O)[nH]c4c(oc5ncccc54)c3=O)C[C@@H]21 [Example 76, hydrochloride]	8.74
COCCOCCn1c(=O)n(CCN2C[C@@H]3CCc4c(OC)cccc4[C@@H]3C2)c(=O)c2sc3nccnc3c21 [Example 102, hydrochloride]	8.96

Now consider the entry below.
Q: Recorded pA2 Dog Prostate [α-1A] of COc1ccc2sc3c(=O)n(CCN4C[C@@H]5CCc6c(OC)cccc6[C@@H]5C4)c(=O)[nH]c3c2n1 [Example 64, dihydrochloride] , please.
Result: 9.63
